z-score reference
SYSTEM_UNDER_TEST: Luciferin 4-monooxygenase (Photinus pyralis) (UniProt P08659)
Sequence (P08659 whole entry, looked up): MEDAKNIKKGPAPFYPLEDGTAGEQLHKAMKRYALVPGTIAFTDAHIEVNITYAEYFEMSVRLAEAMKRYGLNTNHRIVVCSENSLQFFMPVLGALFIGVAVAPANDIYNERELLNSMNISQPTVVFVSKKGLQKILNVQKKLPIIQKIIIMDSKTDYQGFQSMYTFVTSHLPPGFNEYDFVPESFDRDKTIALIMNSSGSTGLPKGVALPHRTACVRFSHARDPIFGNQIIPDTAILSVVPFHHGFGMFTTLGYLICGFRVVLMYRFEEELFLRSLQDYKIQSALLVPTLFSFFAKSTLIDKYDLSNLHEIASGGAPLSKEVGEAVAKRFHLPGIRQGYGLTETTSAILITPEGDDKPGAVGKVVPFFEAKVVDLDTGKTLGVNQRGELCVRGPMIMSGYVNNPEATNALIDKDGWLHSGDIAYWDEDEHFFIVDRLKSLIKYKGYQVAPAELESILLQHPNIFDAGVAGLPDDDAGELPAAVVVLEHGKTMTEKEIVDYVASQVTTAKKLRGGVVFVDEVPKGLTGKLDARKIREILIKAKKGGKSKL
RUN_DESCRIPTION: inhibition of purified Photinus pyralis luciferase – biochemical, luminescence, purified enzyme, 2006 set, primary screen (AID 1141);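 note: cell-free assay with purified firefly luciferase at 100 ng per well in PBS; test concentration not given here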
CONDITION: purified firefly luciferase, SteadyGlo luminescence, 30 min; higher = more signal, called active from +8 up or from −8 down

| SMILES_STRING | z-score |
| --- | --- |
| CCCCC(=C=CC[C@H](O)c1cccc(OCCO)c1)C[C@H](O)COCc1ccccc1 | -0.352 |
| COC(=O)[C@H]1N=C(c2ccc(OCCCO)cc2)O[C@H]1c1ccccc1CN=[N+]=[N-] | -8.1 |
| C=CCOC(=O)[C@@H]1[C@H]2C(=O)O[C@H](c3ccccc3)[C@H](c3ccccc3)N2[C@H](c2ccc(OCCOC(=O)[C@H]3C[C@H]4C(=O)N[C@@H](Cc5ccccc5)C(=O)N4[C@H]3c3cccc(OCCO)c3)cc2)[C@@]12C(=O)Nc1ccc(I)cc12 | -3.65 |
| COc1ccc(C(=O)Nc2ccc3c(c2)[C@]2(O[C@@H](CCO)[C@H]([Si](C)(C)c4ccc(OC)cc4)[C@H]2C)C(=O)N3Cc2ccccc2)cc1 | -0.777 |
| O=C(CS)NCCCCCNC(=O)[C@@H]1C[C@@H]2C(=O)N3CCC[C@H]3C(=O)N2[C@@H]1c1ccc(O)cc1 | -1.59 |
| COCCOC(=O)N1C(=O)[C@@]2(c3cc(C#CCCO)ccc31)[C@H](C(=O)N1CCc3cc(OC)c(OC)cc3C1)[C@H]1C(=O)O[C@H](c3ccccc3)[C@H](c3ccccc3)N1[C@@H]2c1ccc(OCCO)cc1 | -2.83 |

====

The entries below come with measured z-score values attached.
RUN_DESCRIPTION: forskolin-driven CRE-LacZ activity in PC12 – cell-based, CRE-LacZ reporter, forskolin-stimulated, primary screen (AID 1146);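 note: PC12 cells with 6xCRE LacZ reporter stimulated by forskolin 10 µM; beta-galactosidase reporter signal reflecting CREB driven transcription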
CONDITION: luminescence, 4.5 h, higher = more signal, called active from +8 up or from −8 down

| MOLECULE | z-score |
| --- | --- |
| CC1C=C(CCCO)C=C(C(=O)OCCS(C)(=O)=O)C(C(=O)OCCS(C)(=O)=O)=CN1Cc1cccc(OC(F)(F)F)c1 (stereo not drawn) | 0.56 |
| CC(C)N1C(=O)c2ccccc2[C@](C)(C(=O)O)[C@@H]1c1ccc(CO)cc1 | 0.552 |
| CO[C@H]1O[C@H](CO)[C@@H](OC(=O)Nc2ccc(C(F)(F)F)cc2)[C@H](OC(=O)Nc2ccccc2)[C@H]1OC(=O)Nc1ccccc1 | -1.51 |
| COc1ccc(CCNC(=O)[C@@H]2c3ccccc3C(=O)N(Cc3ccccc3)[C@H]2c2ccc(CO)cc2)cc1 | -1.15 |
| COC(=O)[C@@]1(Cc2ccc(OC)cc2)[C@H]2c3cc(C(=O)N4CCCC4)n(Cc4ccc(C)o4)c3C[C@H]2CN1C(=O)c1ccccc1 | -2.15 |
| C=CC[C@@]1(C(=O)NCC(O)CO)N=C(c2ccc(OCCCO)cc2)O[C@@H]1c1ccccc1 (stereo partly drawn) | -0.458 |
| O=C1c2ccccc2[C@](Cc2ccccc2I)(C(=O)NCC(F)(F)F)[C@H](c2ccc(CO)cc2)N1Cc1ccccc1 | 2.76 |
| COCC(=C=CC[C@@H](O)c1ccccc1OCCO)C[C@@H](O)COCc1ccccc1 | -1.46 |
